Target: proMMP9(20-445;ΔFnII) (SEQ ID NO:6) (Homo sapiens, UniProt P14780, DEL216-390)
Construct: start methionine (N)
Sequence (P14780 with tags, fused parts or gaps DEL216-390): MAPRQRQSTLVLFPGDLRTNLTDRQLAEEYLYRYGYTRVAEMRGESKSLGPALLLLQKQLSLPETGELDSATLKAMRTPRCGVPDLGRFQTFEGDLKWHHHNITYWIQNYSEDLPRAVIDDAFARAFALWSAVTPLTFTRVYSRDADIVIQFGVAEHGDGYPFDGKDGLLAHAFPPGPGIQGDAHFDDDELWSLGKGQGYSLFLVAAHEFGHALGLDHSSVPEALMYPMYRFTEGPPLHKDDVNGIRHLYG
Assay: ThermoFluor binding assay with proMMP9(20-445;ΔFnII)
pKd: −log10 of the molar value.
# cutoff 6 applies to pKd; >= gives criterion met, < gives criterion not met

| Molecule | Tgt | Label |
| --- | --- | --- |
| CC(C)Oc1ccc(C#N)cc1Nc1nc2c(ccc3c2ncn3C)s1 [Example 160] | proMMP9(20-445;ΔFnII) (SEQ ID NO:6) (Homo sapiens, UniProt P14780, DEL216-390) | criterion met |
| COc1ccc(S(N)(=O)=O)cc1Nc1nc2c(ccc3c2ncn3C)s1 [Example 54] | proMMP9(20-445;ΔFnII) (SEQ ID NO:6) (Homo sapiens, UniProt P14780, DEL216-390) | criterion not met |
| Cn1cnc2c3nc(Nc4cc(C#N)ccc4OC(F)(F)F)sc3ccc21 [Example 164] | proMMP9(20-445;ΔFnII) (SEQ ID NO:6) (Homo sapiens, UniProt P14780, DEL216-390) | criterion met |
| CC(C)Oc1ccc(C(N)=O)cc1Nc1nc2c(ccc3cnccc32)s1 [Example 90] | proMMP9(20-445;ΔFnII) (SEQ ID NO:6) (Homo sapiens, UniProt P14780, DEL216-390) | criterion met |
| COc1ccc(S(=O)(=O)N2CCOCC2)cc1Nc1nc2c(ccc3c2ncn3C)s1 [Example 81] | proMMP9(20-445;ΔFnII) (SEQ ID NO:6) (Homo sapiens, UniProt P14780, DEL216-390) | criterion not met |
| CC(C)Oc1ccc(S(N)(=O)=O)cc1Nc1nc2c(ccc3c2cnn3C)s1 [Example 102] | proMMP9(20-445;ΔFnII) (SEQ ID NO:6) (Homo sapiens, UniProt P14780, DEL216-390) | criterion met |
